Biological target: Methylated-DNA--protein-cysteine methyltransferase (Homo sapiens, UniProt P16455)
Sequence (P16455 whole entry): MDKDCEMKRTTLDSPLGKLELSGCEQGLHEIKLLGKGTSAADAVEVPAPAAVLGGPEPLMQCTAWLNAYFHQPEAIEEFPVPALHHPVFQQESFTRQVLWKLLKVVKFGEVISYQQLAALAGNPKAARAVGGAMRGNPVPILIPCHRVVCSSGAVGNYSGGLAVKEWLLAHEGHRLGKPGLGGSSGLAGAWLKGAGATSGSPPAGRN
Assay: Inhibition of human MGMT using 06-benzylguanine as substrate incubated for 30 mins by LC/MS analysis
Settings: 0.5 h
observed_property: inhibition (INH)

INSERT INTO measurements (input_smiles, assay_system, readout_value) VALUES
  ('Nc1cc(Cc2ccccc2)c2nn[nH]c2n1', 'Methylated-DNA--protein-cysteine methyltransferase (Homo sapiens, UniProt P16455)', 'Not Active'),
  ('Nc1nc(OCc2ccccc2)c2[nH]nnc2n1', 'Methylated-DNA--protein-cysteine methyltransferase (Homo sapiens, UniProt P16455)', 'Active'),
  ('Nc1nc(Cc2ccccc2)c2nn[nH]c2n1', 'Methylated-DNA--protein-cysteine methyltransferase (Homo sapiens, UniProt P16455)', 'Not Active'),
  ('Nc1cc(OCc2ccccc2)c2nn[nH]c2n1', 'Methylated-DNA--protein-cysteine methyltransferase (Homo sapiens, UniProt P16455)', 'Active');

Where these numbers come from: ChEMBL document CHEMBL4699540
